# Test Target: HSP27 (Homo sapiens)
# Method Notes: Capillary electrophoresis of the CS protein precipitates (precipitated citrate synthase as measure of HSP27 inhibition)
# Format: biochemical
# Stated Conditions: 10 μmol/L; 43° C. for 120 minutes; 750 μmol/L BVDU set at 1
Measured Endpoint: Rel. quantity of protein prec. CS

CCCCc1ccc(Nc2nc3c(ncn3COCCO)c(=O)[nH]2)cc1 | 0.92
Cc1cn(CC=CCNC(=O)Cc2ccc(-c3ccccc3)cc2)c(=O)[nH]c1=O | 0.81

a. Cc1cn(CC=CCNC(=O)C2c3ccccc3Oc3ccccc32)c(=O)[nH]c1=O
b. CC(=O)c1ccc2c(c1)N(CCCN(C)C)c1ccccc1S2
// query Return label of the item with the larger Rel. quantity of protein prec. CS. Candidates: a , b . Identify your selection by its label.
// result b

---

# Test Target: HSP27 (Homo sapiens, UniProt P04792)
# Sequence (P04792 whole entry): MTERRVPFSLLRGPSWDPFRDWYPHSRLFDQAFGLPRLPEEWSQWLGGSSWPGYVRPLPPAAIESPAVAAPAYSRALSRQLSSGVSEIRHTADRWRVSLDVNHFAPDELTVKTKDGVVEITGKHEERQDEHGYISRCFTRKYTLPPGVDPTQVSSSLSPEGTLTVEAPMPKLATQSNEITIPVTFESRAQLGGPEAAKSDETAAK
# Method Notes: Capillary electrophoresis of the CS protein precipitates (precipitated citrate synthase as measure of HSP27 inhibition)
# Assay type: biochemical
# Stated Conditions: 10 μmol/L; 43° C. for 70 minutes; 750 μmol/L BVDU set at 1
# Experimental: Since the heat-denatured protein aggregates of the citrate synthase from Example 1 are not water-soluble, these can be separated completely from the supernatant by means of centrifugation at room temperature at 16,000×g, 10 min. By using capillary electrophoresis, the compositions of the separated precipitates can be shown and quantified. The relative quantity of protein of precipitated citrate synthase serves as a measure of the efficacy of the test substances. […]
Measured Endpoint: Rel. quantity of protein prec. CS

CCCCCc1cn([C@H]2C[C@H](n3cc(C)c(=O)[nH]c3=O)O[C@@H]2CO)nn1 | 0.70
Cc1cn(CCCCNC(=O)Cc2ccc3ccccc3c2)c(=O)[nH]c1=O | 0.75
O=C(Cc1ccc(-c2ccccc2)cc1)NC/C=C\Cn1ccc(=O)[nH]c1=O | 0.88
Cc1cn(CCCCNC(=O)C(c2ccccc2)c2ccccc2)c(=O)[nH]c1=O | 0.79
Cc1cn(C/C=C\CNC(=O)Cc2ccc3ccccc3c2)c(=O)[nH]c1=O | 0.83
Cc1cn([C@H]2C[C@H](n3cc(C(C)(C)C)nn3)[C@@H](CO)O2)c(=O)[nH]c1=O | 0.61
Cc1cn([C@H]2C[C@H](n3cc(-c4ccccn4)nn3)[C@@H](CO)O2)c(=O)[nH]c1=O | 0.84
CCCCc1cn([C@H]2C[C@H](n3cc(C)c(=O)[nH]c3=O)O[C@@H]2CO)nn1 | 0.76
Cc1cn([C@H]2C[C@H](n3cc(CCc4ccccc4)nn3)[C@@H](CO)O2)c(=O)[nH]c1=O | 0.74

---

# Test Target: HSP27 (Homo sapiens, UniProt P04792)
# Method Notes: Bio-layer interferometry (ForteBio Octet Red 384, biotinylated HSP27 on SSA sensors)
# Type: binding
# Stated Conditions: analytes 1.23-300 μM/l, PBST 0.1% Tween 20 plus 3% DMSO; read-out: Dissociation constant KD
Measured Endpoint: Kd (µM)

Solved entries (count: 2):
Cc1cn(CC=CCNC(=O)Cc2ccc(-c3ccccc3)cc2)c(=O)[nH]c1=O | 424
O=c1[nH]c(=O)n([C@H]2C[C@H](O)[C@@H](CO)O2)cc1-c1ccccc1 [5-Phenyl-2′-deoxyuridine] | 60

I. Cc1cn(CC=CCNC(=O)C2c3ccccc3Oc3ccccc32)c(=O)[nH]c1=O
II. O=c1nc(Nc2cccc(CO)c2)[nH]c2nc[nH]c12
// query Return label of the item with the larger Kd. Candidates: I , II . Identify your selection by its label.
// result II
(II: 710 µM, I: 267 µM)

Ref: patent US20170216297A1
